Assay Method Text: Selectivity index, ratio of LC50 for mouse RAW264.7 cells to IC50 for Plasmodium falciparum
Condition Set: raw264.7
Measurement Name: selectivity ratio

Nc1cccc(-c2csc(NC(=O)CCCCCCC(=O)NO)n2)c1    1080

----------
Assay Method Text: Inhibition of histone deacetylase assessed as alteration of histone H3 acetylation by cell-based assay
pIC50: −log10 of the molar value.
Measurement Name: pIC50

Nc1cccc(-c2csc(NC(=O)CCCCCCC(=O)NO)n2)c1    7.98

----------
Assay Method Text: Half life in human liver microsome by LC/MS analysis
Type: ADME
Condition Set: liver microsomes
Measurement Name: half-life

Nc1cccc(-c2csc(NC(=O)CCCCCCC(=O)NO)n2)c1    > 1 h
